Test system: HOP-62 NSCLC
Experiment: NCI tumour cell line growth inhibition, 48 h
Each item that follows carries a reported GI50.
Assay endpoint: GI50

# Compound, Target or test system, Result
measured = [
    ("COc1cc(/C=C/C(=O)c2cccc(-n3cc(-c4ccccc4)[nH]c3=O)c2)ccc1O", "HOP-62 NSCLC", "4600 nM"),
    ("O=[N+]([O-])c1cc2c(ccc3ccccc32)o1", "HOP-62 NSCLC", "1310 nM"),
    ("CCOC(=O)c1c(C)n(Cc2ccc(Cl)cc2Cl)c2c1cc(O)c1[nH]c(Cc3ccccc3)nc12", "HOP-62 NSCLC", "4610 nM"),
    ("CCCCCCCCCCCCNCCCc1ccccc1", "HOP-62 NSCLC", "2070 nM"),
    ("CCc1n(Cc2ccc3ccccc3c2)cc[n+]1Cc1ccc2ccccc2c1", "HOP-62 NSCLC", "1420 nM"),
    ("Cc1cc(N)c2cc(NC(=O)/C=C\\c3ccccc3Cl)ccc2n1", "HOP-62 NSCLC", "725 nM"),
    ("COc1cc(/C=C2\\CC3C4CC=C5C[C@@H](N6CCCC6)CC[C@]5(C)C4CC[C@]3(C)[C@H]2OC(C)=O)ccc1OCCCn1ccnc1 (some centres not stated)", "HOP-62 NSCLC", "435 nM"),
]
